Overview of reported kon across a group of binders:
# tested-on: T1, purified human activated C1s protein, two-chain form (Homo sapiens, UniProt P09871 16-688)
# T1 construct: Also used here for C1s acting in human serum assays; also called human C1s; active C1s
# T1 sequence: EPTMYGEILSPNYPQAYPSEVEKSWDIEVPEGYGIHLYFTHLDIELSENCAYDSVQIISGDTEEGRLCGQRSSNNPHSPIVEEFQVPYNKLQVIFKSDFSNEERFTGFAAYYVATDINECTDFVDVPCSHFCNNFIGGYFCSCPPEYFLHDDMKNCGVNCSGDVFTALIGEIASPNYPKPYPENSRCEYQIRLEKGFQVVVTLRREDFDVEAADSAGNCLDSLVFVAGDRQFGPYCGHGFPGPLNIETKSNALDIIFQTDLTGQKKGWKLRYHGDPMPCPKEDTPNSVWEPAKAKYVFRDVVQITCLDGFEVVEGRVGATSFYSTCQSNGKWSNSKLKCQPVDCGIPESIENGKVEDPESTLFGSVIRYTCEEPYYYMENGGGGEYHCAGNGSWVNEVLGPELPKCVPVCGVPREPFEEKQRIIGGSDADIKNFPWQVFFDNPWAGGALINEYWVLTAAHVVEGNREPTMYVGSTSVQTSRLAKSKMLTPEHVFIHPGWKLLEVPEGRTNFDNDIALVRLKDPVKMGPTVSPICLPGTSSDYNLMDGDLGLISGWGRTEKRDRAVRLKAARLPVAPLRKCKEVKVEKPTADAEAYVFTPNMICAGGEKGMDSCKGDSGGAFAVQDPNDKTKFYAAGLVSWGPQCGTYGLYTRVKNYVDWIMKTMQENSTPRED
# measurement-protocol: kinetic binding measurement, method not stated; Table 9, activated C1s
Write it as a number; the unit M⁻¹ s⁻¹ goes unstated.

>  <binder>
VH1/Vk2 (antibody, V domains shown, member of group m7; also called VH1/Vκ2; VH variant 1 + Vk variant 2) VH: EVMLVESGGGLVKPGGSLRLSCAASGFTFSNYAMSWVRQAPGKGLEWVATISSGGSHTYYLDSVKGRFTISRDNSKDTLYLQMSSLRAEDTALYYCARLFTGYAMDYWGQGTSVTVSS VL: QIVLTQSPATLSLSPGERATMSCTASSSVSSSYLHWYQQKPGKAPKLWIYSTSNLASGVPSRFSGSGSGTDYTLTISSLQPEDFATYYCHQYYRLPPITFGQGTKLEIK

>  <result-unit>
M⁻¹ s⁻¹

>  <kon>
1.05e+06

$$$$
>  <binder>
VH1/Vk3 (antibody, V domains shown, member of group m7; also called VH1/Vκ3; VH variant 1 + Vk variant 3) VH: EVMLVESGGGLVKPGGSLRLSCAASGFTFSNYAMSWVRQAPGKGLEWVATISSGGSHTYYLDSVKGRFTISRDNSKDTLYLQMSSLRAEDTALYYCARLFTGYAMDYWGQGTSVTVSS VL: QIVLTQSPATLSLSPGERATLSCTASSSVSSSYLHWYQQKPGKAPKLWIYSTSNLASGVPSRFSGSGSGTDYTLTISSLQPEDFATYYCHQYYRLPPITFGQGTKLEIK

>  <result-unit>
M⁻¹ s⁻¹

>  <kon>
914000

$$$$

Now examine the next entry.
Entry under review: VH3/Vk2 (antibody, V domains shown, member of group m7; also called VH3/Vκ2; VH variant 3 + Vk variant 2) VH: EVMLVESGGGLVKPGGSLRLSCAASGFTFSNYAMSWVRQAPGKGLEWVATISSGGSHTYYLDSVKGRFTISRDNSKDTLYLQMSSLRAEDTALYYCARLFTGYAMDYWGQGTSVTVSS VL: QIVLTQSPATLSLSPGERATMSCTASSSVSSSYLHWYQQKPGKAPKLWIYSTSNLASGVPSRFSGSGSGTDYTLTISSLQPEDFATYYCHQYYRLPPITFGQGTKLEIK . Reported kon? 1.13e+06
